# SI (selective index) annotations
System: RSV A strain A2
Experiment: Antiviral activity against RSV A strain A2 in HEp-2 cells (ELISA virus titer)
Type: cell-based, respiratory syncytial virus
Number only, please.

# get_value(readout='SI (selective index)', item= CC1(C)C2CC=C(COc3ccc4c(-c5ccc(F)cc5)cc(=O)oc4c3)C1C2 (centres unmarked) [Compound 16c] )
1.4

###

Assay: Cytotoxicity on non-infected HEp-2 cells, MTT assay
Format: cell-based
Conditions: human, non-infected HEp-2 cells, CC50 (50% cytotoxic concentration), MTT, 24 h
Items are presented alongside their recorded CC50 at 24 h.
Just the number in µM, nothing appended.

As a guide, the following entries are already answered.
CC1(C)[C@H]2CC=C(CCNc3ccc4c(-c5ccccc5)cc(=O)oc4c3)[C@@H]1C2 [Compound 22]; 480
O=c1cc(-c2ccc(F)cc2)c2ccc(OCc3ccccc3)cc2o1 [Compound 16g]; 655
CC1(C)[C@H]2CC=C(CCCOc3ccc4c(-c5ccc(F)cc5)cc(=O)oc4c3)[C@@H]1C2 [Compound 16e]; 996
CC1(C)[C@H]2CC=C(CCCCOc3ccc4c(-c5ccccc5)cc(=O)oc4c3)[C@@H]1C2 [Compound 14f]; 1270
O=c1cc(-c2ccc(Br)cc2)c2ccc(OCc3ccccc3)cc2o1 [Compound 15g]; 265

Form field: reported CC50 at 24 h of CC(C)=CCC/C(C)=C/COc1ccc2c(-c3ccc(Br)cc3)cc(=O)oc2c1 [Compound 15a]
8.8

Also CC1(C)[C@H]2CC=C(CCCOc3ccc4c(-c5ccccc5)cc(=O)oc4c3)[C@@H]1C2 [Compound 14e] ?
1440
